Would you kindly list combination Emax for each of these molecules?
# Tested on: NCI-H1092 (Small Cell Lung Carcinoma)
# ASSAY_PROTOCOL: combination Emax (second highest fraction inhibited in the dose matrix, 72 h); higher = more inhibition; extreme values may be limits of the assay
The reply should be a number, written without any unit.

[ask] Quick one: combination Emax of C=CCn1c(=O)c2cnc(Nc3ccc(N4CCN(C)CC4)cc3)nc2n1-c1cccc(C(C)(C)O)n1 [AZD1775] + C1CN(CCC1(C(=O)N[C@@H](CCO)C2=CC=C(C=C2)Cl)N)C3=NC=NC4=C3C=CN4 [Capivasertib] (first compound max 3 µM, partner max 3 µM) ?
[reply] 0.533

[ask] Same read-out for COc1cccc2c1C(=O)c1c(O)c3c(c(O)c1C2=O)C[C@@](O)(C(=O)CO)C[C@@H]3O[C@H]1C[C@H](N)[C@H](O)[C@H](C)O1 [Doxorubicin] + Cc1cc2ncnn2cc1Nc1ncc2c(n1)n(C1CCOCC1)c(=O)n2C [AZD7648] (first compound max 1 µM, 7x7, partner max 10 µM) ?
[reply] 0.479

[ask] Same read-out for Cc1c2c(nn1C)CSCc1cc(n(C)n1)CSc1cc(c3ccccc3c1)OCCCc1c(C(=O)O)n(C)c3c-2c(Cl)ccc13 [AZD5991] + Cc1cc2ncnn2cc1Nc1ncc2c(n1)n(C1CCOCC1)c(=O)n2C [AZD7648] (first compound max 1 µM, 7x7, partner max 10 µM) ?
[reply] 0.583

[ask] Same read-out for CN(C)CCCOc1ccc(-c2ccc3ncc4c(c3c2)n(C2CCOCC2)c(=O)n4C)cn1 [AZD0156] + C[C@@H]1COCCN1C2=NC(=NC(=C2)C3(CC3)[S@](=N)(=O)C)C4=C5C=CNC5=NC=C4 [AZD6738] (first compound max 1 µM, 7x7, partner max 10 µM) ?
[reply] 0.174

[ask] Same read-out for CC1(C)CCC(CN2CCN(c3ccc(C(=O)NS(=O)(=O)c4ccc(NCC5CCOCC5)c([N+](=O)[O-])c4)c(Oc4cnc5[nH]ccc5c4)c3)CC2)=C(c2ccc(Cl)cc2)C1 [Venetoclax] + CCN(CCO)CCCOc1ccc2c(Nc3cc(CC(=O)Nc4cccc(F)c4)[nH]n3)ncnc2c1 [AZD2811] (first compound max 1 µM, 7x7, partner max 1 µM) ?
[reply] 0.39

[ask] Same read-out for Cc1c2c(nn1C)CSCc1cc(n(C)n1)CSc1cc(c3ccccc3c1)OCCCc1c(C(=O)O)n(C)c3c-2c(Cl)ccc13 [AZD5991] + C1CN(CCC1(C(=O)N[C@@H](CCO)C2=CC=C(C=C2)Cl)N)C3=NC=NC4=C3C=CN4 [Capivasertib] (first compound max 1 µM, 7x7, partner max 3 µM) ?
[reply] 0.534

[ask] Same read-out for CC(=O)c1c(C)c2cnc(Nc3ccc(N4CCNCC4)cn3)nc2n(C2CCCC2)c1=O [Palbociclib] + CN(CC[C@H](CSC1=CC=CC=C1)NC2=C(C=C(C=C2)S(=O)(=O)NC(=O)C3=CC=C(C=C3)N4CCC(CC4)[C@H](C5=CC=CC=C5C6=CC=C(C=C6)Cl)O)S(=O)(=O)C(F)(F)F)CCO [AZD4320] (first compound max 10 µM, 7x7, partner max 1 µM) ?
[reply] 0.915

[ask] Same read-out for COc1cccc(OCCCN)c1-c1cc(Nc2cnc(C#N)cn2)n[nH]1 [Prexasertib] + CN(C)CCCOc1ccc(-c2ccc3ncc4c(c3c2)n(C2CCOCC2)c(=O)n4C)cn1 [AZD0156] (first compound max 1 µM, 7x7, partner max 1 µM) ?
[reply] 0.74

[ask] Same read-out for COc1cccc(OCCCN)c1-c1cc(Nc2cnc(C#N)cn2)n[nH]1 [Prexasertib] + CCc1c2c(nc3ccc(O)cc13)-c1cc3c(c(=O)n1C2)COC(=O)[C@]3(O)CC [SN-38] (first compound max 1 µM, 7x7, partner max 0.3 µM) ?
[reply] 0.899

[ask] Same read-out for CC1(C)CCC(CN2CCN(c3ccc(C(=O)NS(=O)(=O)c4ccc(NCC5CCOCC5)c([N+](=O)[O-])c4)c(Oc4cnc5[nH]ccc5c4)c3)CC2)=C(c2ccc(Cl)cc2)C1 [Venetoclax] + CN(C)CCCOc1ccc(-c2ccc3ncc4c(c3c2)n(C2CCOCC2)c(=O)n4C)cn1 [AZD0156] (first compound max 1 µM, 7x7, partner max 1 µM) ?
[reply] 0.252

[ask] Same read-out for NC1(C(=O)N[C@@H](CCO)c2ccc(Cl)cc2)CCN(c2ncnc3[nH]ccc23)CC1 [Capivasertib] + CC(=O)c1c(C)c2cnc(Nc3ccc(N4CCNCC4)cn3)nc2n(C2CCCC2)c1=O [Palbociclib] (first compound max 10 µM, 7x7, partner max 10 µM) ?
[reply] 0.177

[ask] Same read-out for CCc1c2c(nc3ccc(O)cc13)-c1cc3c(c(=O)n1C2)COC(=O)[C@]3(O)CC [SN-38] + O=C(c1cc(Cc2n[nH]c(=O)c3ccccc23)ccc1F)N1CCN(C(=O)C2CC2)CC1 [Olaparib] (first compound max 0.3 µM, 7x7, partner max 10 µM) ?
[reply] 0.54

[ask] Same read-out for CN(CCO)CC[C@H](CSc1ccccc1)Nc1ccc(S(=O)(=O)NC(=O)c2ccc(N3CCC([C@@H](O)c4ccccc4-c4ccc(Cl)cc4)CC3)cc2)cc1S(=O)(=O)C(F)(F)F [AZD4320] + CCN(CCO)CCCOc1ccc2c(Nc3cc(CC(=O)Nc4cccc(F)c4)[nH]n3)ncnc2c1 [AZD2811] (first compound max 1 µM, 7x7, partner max 1 µM) ?
[reply] 0.866
